- target.or.system: human EDG-1 (Homo sapiens, UniProt P21453)
- Construct: c-myc (N); homogenized membranes
- Sequence (P21453 whole entry): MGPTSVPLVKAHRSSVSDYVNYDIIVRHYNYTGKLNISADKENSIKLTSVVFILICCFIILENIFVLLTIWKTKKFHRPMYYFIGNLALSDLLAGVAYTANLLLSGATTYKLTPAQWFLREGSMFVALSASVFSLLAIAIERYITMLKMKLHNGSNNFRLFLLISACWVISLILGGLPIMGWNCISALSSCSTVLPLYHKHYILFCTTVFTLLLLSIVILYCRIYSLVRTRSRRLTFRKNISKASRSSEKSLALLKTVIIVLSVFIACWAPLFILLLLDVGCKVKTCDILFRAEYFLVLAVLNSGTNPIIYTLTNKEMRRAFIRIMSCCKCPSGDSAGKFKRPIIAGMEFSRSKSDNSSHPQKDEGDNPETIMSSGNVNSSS
- protocol.details: GPCR activation assay measuring GTP [γ-35S] binding to membranes from CHO cells expressing human EDG receptors
- protocol.conditions: EDG-1 (S1P1) GTP [γ-35S] binding, CHO cell membranes
recorded.endpoint: EC50 (nM)
Entry rule: numbers only, all in nM.

Exercise: I am curious: what EC50 value has been reported for O=C(O)C1CN(Cc2ccc(SCc3ccc(-c4ccccc4)c(C(F)(F)F)c3)cc2)C1 ?
Solution: 0.82
